Test system: U2OS
Assay: Multiplex assay against U2OS
Type: toxicity, cell-based
Conditions: human, 24 h, 1 µM, compound concentration 1 uM, replicate 1
Listed below: Population Healthy Nuclei (%) values for each entry.
Kindly answer with a numeric value in %, unit omitted.

Examples from the recorded data:
>  <Compound>
CC(=O)NCCc1c(Cc2ccccc2)[nH]c2ccccc12

>  <Measured result>
68

$$$$
>  <Compound>
O=C(O)Cc1ccccc1Nc1c(Cl)cccc1Cl

>  <Measured result>
76

$$$$
>  <Compound>
Cl.Clc1ccc2nsnc2c1NC1=NCCN1 [TIZANIDINE HYDROCHLORIDE]

>  <Measured result>
72

$$$$
>  <Compound>
CN(C)c1ccnc2sc3c(=O)n(N4CCCCCC4)cnc3c12

>  <Measured result>
72

$$$$

O=C(NCC(=O)N1CC[C@H](N[C@H]2CC[C@@](O)(c3ccc(-c4ncccn4)cn3)CC2)C1)c1cccc(C(F)(F)F)c1 yielded Population Healthy Nuclei (%) of 69

CSc1ccccc1N1CCN(CCCCCC(=O)NC2CCCc3ccccc32)CC1.Cl (centres undefined) yielded Population Healthy Nuclei (%) of 60

CNC[C@H](O)c1ccc(O)c(O)c1 [EPINEPHRINE] yielded Population Healthy Nuclei (%) of 64

CC(C)(C)c1ccc(S(=O)(=O)Nc2ccc(Cl)cc2C(=O)c2cc[n+]([O-])cc2)cc1 yielded Population Healthy Nuclei (%) of 67

CCCN1CCC[C@@H]2Cc3n[nH]cc3C[C@H]21.Cl [QUINPIROLE HYDROCHLORIDE] yielded Population Healthy Nuclei (%) of 64

Cc1ccc(C(C)(O)c2nc3ccccc3s2)c(C)c1 (centres undefined) yielded Population Healthy Nuclei (%) of 69

COc1cc(C(=O)N(CCCc2ccccc2)Cc2ccc(CC(=O)O)cc2)cc(OC)c1C yielded Population Healthy Nuclei (%) of 61

Oc1c(CN2CCN(c3ccccn3)CC2)cc(Cl)c2cccnc12 yielded Population Healthy Nuclei (%) of 64

CN1CCN2c3ncccc3Cc3ccccc3C2C1 (centres undefined) yielded Population Healthy Nuclei (%) of 76

* * *

System: HEK-293T
Assay: Multiplex assay against HEK293T
Type: toxicity, cell-based
Settings: human, 48 h, 10 µM, compound concentration 10 uM, replicate 1
Property measured: Population Hoechst High Intensity Objects (%)
Kindly answer with a numeric value in %, unit omitted.

Examples from the recorded data:
>  <Molecule>
O=C(O)Cc1ccccc1Nc1c(Cl)cccc1Cl [DICLOFENAC]

>  <Measured result>
3

$$$$
>  <Molecule>
C[C@H]1[C@H]2CC[C@H]3[C@@H]4CC=C5C[C@@H](N(C)C)CC[C@]5(C)[C@H]4CC[C@]23CN1C [CONESSINE]

>  <Measured result>
4

$$$$
>  <Molecule>
C[C@@H]1C[C@H]2[C@@H]3CCC4=CC(=O)C=C[C@]4(C)[C@@]3(F)[C@@H](O)C[C@]2(C)[C@@]1(O)C(=O)CO [DEXAMETHASONE]

>  <Measured result>
3

$$$$
>  <Molecule>
O=C1COc2nccc(-c3ccccc3F)c2CN1Cc1cc(C(F)(F)F)cc(C(F)(F)F)c1

>  <Measured result>
3

$$$$
>  <Molecule>
Cl.Clc1ccc2nsnc2c1NC1=NCCN1 [TIZANIDINE HYDROCHLORIDE]

>  <Measured result>
3

$$$$

Population Hoechst High Intensity Objects (%) value, target or system HEK-293T, for CN1CCN2c3ncccc3Cc3ccccc3C2C1 (stereo unspecified) [MIRTAZAPINE] : 2

Population Hoechst High Intensity Objects (%) value, target or system HEK-293T, for CC[C@H]1OC(=O)[C@H](C)[C@@H](O[C@H]2C[C@@](C)(OC)[C@@H](O)[C@H](C)O2)[C@H](C)[C@@H](O[C@@H]2O[C@H](C)C[C@H](N(C)C)[C@H]2O)[C@@]2(C)CC(C)=C(O2)[C@H](C)[C@@H](O)[C@]1(C)O : 10

Population Hoechst High Intensity Objects (%) value, target or system HEK-293T, for CSc1ccccc1N1CCN(CCCCCC(=O)NC2CCCc3ccccc32)CC1.Cl (stereo unspecified) : 28

Population Hoechst High Intensity Objects (%) value, target or system HEK-293T, for O=C(NCC(=O)N1CC[C@H](N[C@H]2CC[C@@](O)(c3ccc(-c4ncccn4)cn3)CC2)C1)c1cccc(C(F)(F)F)c1 [PF-4136309] : 5

Population Hoechst High Intensity Objects (%) value, target or system HEK-293T, for CCNC1(C(N)=O)CCN(c2ncnc3c2nc(-c2ccccc2Cl)n3-c2ccc(Cl)cc2)CC1 [OTENABANT] : 16

Population Hoechst High Intensity Objects (%) value, target or system HEK-293T, for O=C(NCCO)c1cccc(-c2cc(Nc3ccc(OC(F)(F)F)cc3)ncn2)c1 : 8

* * *

Test system: Fibroblast
Assay: Multiplex assay against human fibroblast
Assay type: toxicity, cell-based
Conditions: 48 h, 10 µM, compound concentration 10 uM, replicate 1
Property measured: Population Mitochondria Different-Phenotype (%)
Kindly answer with a numeric value in %, unit omitted.

Examples from the recorded data:
>  <Compound>
CCCC(CCC)C(=O)O

>  <Measured result>
1

$$$$
>  <Compound>
CCOc1c2c(c(OCC)c3ncccc13)CN(c1ccc(CS(=O)(=O)NC(=O)Cc3ccccc3OC)cc1C)C2=O

>  <Measured result>
2

$$$$
>  <Compound>
Cl.Clc1ccc2nsnc2c1NC1=NCCN1 [TIZANIDINE HYDROCHLORIDE]

>  <Measured result>
5

$$$$
>  <Compound>
c1cc(OCCCN2CCCCC2)ccc1CN1CCCCC1

>  <Measured result>
2

$$$$
>  <Compound>
CSCC[C@H](NC=O)C(=O)N[C@@H](CC(C)C)C(=O)N[C@@H](Cc1ccccc1)C(=O)O

>  <Measured result>
4

$$$$

N[C@@]1(C(=O)O)CO[C@H]2[C@H](C(=O)O)[C@H]21 yielded Population Mitochondria Different-Phenotype (%) of 0

Cc1nc2ccc(Oc3ccc(F)cc3)cc2c(=O)n1C[C@H]1CCCN(C(C)C)C1.Cl yielded Population Mitochondria Different-Phenotype (%) of 20

CN1CCN2c3ncccc3Cc3ccccc3C2C1 (stereo not given) yielded Population Mitochondria Different-Phenotype (%) of 9

Cc1ccc(F)cc1C(=O)Nc1ccc(C(=O)N2Cc3cccn3Cc3ccccc32)c(Cl)c1 yielded Population Mitochondria Different-Phenotype (%) of 13

CC(=O)NCCc1c(Cc2ccccc2)[nH]c2ccccc12 yielded Population Mitochondria Different-Phenotype (%) of 3

* * *

System: HEK-293T
Assay: Multiplex assay against HEK293T
Type: toxicity, cell-based
Conditions: human, 12 h, 10 µM, compound concentration 10 uM, replicate 1
Is Total Cell Count at least 400? Then 1 (yes). If not, 0 (no).

Worked set:
>  <Molecule>
COc1c(C)cc(NC(=O)c2nn(Cc3ccc(F)cc3)c3c2CN(C(=O)c2ccc[nH]2)C[C@]3(C)C(N)=O)cc1C

>  <System>
HEK-293T

>  <Classification>
0 (no)

$$$$
>  <Molecule>
Cc1ccc(/C(=C\CN2CCCC2)c2ccccn2)cc1

>  <System>
HEK-293T

>  <Classification>
0 (no)

$$$$
>  <Molecule>
C[C@H]1[C@H]2CC[C@H]3[C@@H]4CC=C5C[C@@H](N(C)C)CC[C@]5(C)[C@H]4CC[C@]23CN1C

>  <System>
HEK-293T

>  <Classification>
1 (yes)

$$$$

Quick check, Total Cell Count >= 400? C[C@@H]1C[C@H]2[C@@H]3CCC4=CC(=O)C=C[C@]4(C)[C@@]3(F)[C@@H](O)C[C@]2(C)[C@@]1(O)C(=O)CO 0 (no)

Quick check, Total Cell Count >= 400? N[C@@]1(C(=O)O)CO[C@H]2[C@H](C(=O)O)[C@H]21 1 (yes)

Quick check, Total Cell Count >= 400? Cc1ccc(F)cc1C(=O)Nc1ccc(C(=O)N2Cc3cccn3Cc3ccccc32)c(Cl)c1 0 (no)

Quick check, Total Cell Count >= 400? CC1(COc2ccc3c(c2)ncn3-c2ccc3cccc(N4CCC(N)CC4)c3n2)COC1 1 (yes)

Quick check, Total Cell Count >= 400? CC(=O)NCCc1c(Cc2ccccc2)[nH]c2ccccc12 0 (no)

* * *

Test system: U2OS
Assay: Multiplex assay against U2OS
Format: toxicity, cell-based
Conditions: human, 12 h, 1 µM, compound concentration 1 uM, replicate 1
Listed below: Population Pyknosed Nuclei (%) values for each entry.
Kindly answer with a numeric value in %, unit omitted.

Examples from the recorded data:
>  <Compound>
Cc1ccc(C(C)(O)c2nc3ccccc3s2)c(C)c1 (stereo not given)

>  <Units text>
%

>  <Population Pyknosed Nuclei (%)>
9

$$$$
>  <Compound>
CCCC(CCC)C(=O)O [VALPROIC ACID]

>  <Units text>
%

>  <Population Pyknosed Nuclei (%)>
8

$$$$
>  <Compound>
O=C(O)c1cc2ccccc2c(Cc2c(O)c(C(=O)O)cc3ccccc23)c1O [PAMOIC ACID]

>  <Units text>
%

>  <Population Pyknosed Nuclei (%)>
8

$$$$
>  <Compound>
Cc1ccccc1C(=O)Nc1ccc(C(=O)N2CCCC(N(C)C)c3ccccc32)cc1.Cl (stereo not given)

>  <Units text>
%

>  <Population Pyknosed Nuclei (%)>
8

$$$$
>  <Compound>
c1cc(OCCCN2CCCCC2)ccc1CN1CCCCC1 [JNJ-5207852]

>  <Units text>
%

>  <Population Pyknosed Nuclei (%)>
5

$$$$

Shifting focus to the compound that follows.
N#Cc1c(N)nc(SCc2csc(-c3ccc(Cl)cc3)n2)c(C#N)c1-c1ccc(OCCO)cc1 [CAPADENOSON] yielded Population Pyknosed Nuclei (%) of 8
